Values compiled from paper PMC3676778.

assay: Cell viability (MTT) of RAW264.7 cells in the presence of LPS; format: cell-based, murine; conditions: mouse, RAW264.7 macrophage cells, RAW 264.7 cells, 100 ng/mL LPS, mean ± SD of three replicates, read-out: Cytotoxicity IC50
outcome_measure: IC50 at 24 h (µM)
Answers are plain numbers, in µM.

[[record]]
compound = "CCCCCCCCCCC/C=C1/C(=O)O[C@@H](C)[C@H]1O [Compound 3, 3-epilistenolide D2]"
outcome_measure = "IC50 at 24 h"
recorded_number = 27.7

[[record]]
compound = "C#CCCCCCCCCC/C=C1/C(=O)O[C@@H](C)[C@H]1O [Compound 5]"
outcome_measure = "IC50 at 24 h"
recorded_number = 143


Lab note: next compound to report on.
Quick one: IC50 at 24 h of C#CCCCCCCCCC/C=C1\C(=O)O[C@@H](C)[C@@H]1O [Compound 4] ? 139
